IC50 ratio: recorded values
- TARGET_OF_ASSAY: Mu-type opioid receptor (Cavia porcellus) (UniProt P97266)
- Sequence (P97266 whole entry): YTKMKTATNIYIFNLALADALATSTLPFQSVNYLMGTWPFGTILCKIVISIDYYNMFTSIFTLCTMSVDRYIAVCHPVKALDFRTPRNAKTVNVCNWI
- ASSAY: Antagonistic activity against Opioid receptor mu 1 in guinea pig ileum assay
- Assay type: functional, tissue-based
Answer field: number only, no words.

Consider the worked cases shown below.
COMPOUND	TARGET_OF_ASSAY	IC50 ratio
Oc1ccc2c3c1O[C@H]1c4c(c5ccccc5n4Cc4ccc(N=C=S)cc4)C[C@@]4(O)C(C2)N(CC2CC2)CCC314 (some centres undefined)	Mu-type opioid receptor (Cavia porcellus) (UniProt P97266)	1.3
Oc1ccc2c3c1O[C@H]1c4c(c5ccccc5n4Cc4ccccc4N=C=S)C[C@@]4(O)C(C2)N(CC2CC2)CCC314 (some centres undefined)	Mu-type opioid receptor (Cavia porcellus) (UniProt P97266)	0.6
O=C(CBr)Nc1ccccc1Cn1c2c(c3ccccc31)C[C@@]1(O)C3Cc4ccc(O)c5c4C1(CCN3CC1CC1)[C@H]2O5 (some centres undefined)	Mu-type opioid receptor (Cavia porcellus) (UniProt P97266)	1.7

Let us examine a further case.
Q: Entry Oc1ccc2c3c1O[C@H]1c4c(c5ccccc5n4Cc4cccc(N=C=S)c4)C[C@@]4(O)C(C2)N(CC2CC2)CCC314 (some centres undefined) : reported IC50 ratio = ?
A: 0.8
